- TEST_NAME: Rat pharmacokinetics, 1 mg/kg IV infusion and 5.0 mg/kg PO
- Format: in vivo
- CONDITION_DESCRIPTION: male, SD, rat, plasma; rats, 5.0 mg/kg PO; read-out: oral bioavailability (% F)

RECORD_SMILES	bioavailability, %
Cc1ccc(C(=O)Nc2cccc(-c3nncn3C(C)C)n2)cc1-n1cnc(C2CC2)c1	50

---

- TEST_NAME: Determination of percent of compound bound to plasma (equilibrium dialysis)
- Type: in vitro ADME
- CONDITION_DESCRIPTION: human, pH 7.4, fraction unbound, comparative table, read-out: fu
OBSERVED_PROPERTY: fraction unbound at 3 h, 2 μM

RECORD_SMILES	TEST_VALUE
Cc1cc(F)c(C(=O)Nc2cccc(-c3nncn3C(C)C)n2)cc1-n1cnc(C2CC2)c1	0.12
Cc1ccc(C(=O)Nc2cccc(-c3nncn3C(C)C)n2)cc1-n1cnc(C2CC2)c1	0.032
CC(C)n1cnnc1-c1cccc(NC(=O)c2cccc(-n3cnc(C4CC4)c3)c2)n1	0.048

---

- TEST_NAME: Rat pharmacokinetics, 1 mg/kg IV infusion and 5.0 mg/kg PO
- Assay type: in vivo
- CONDITION_DESCRIPTION: male, SD, rat, plasma, intravenous, 1 mg/kg; rats; read-out: Vss

RECORD_SMILES	Vd
Cc1ccc(C(=O)Nc2cccc(-c3nncn3C(C)C)n2)cc1-n1cnc(C2CC2)c1	0.54 L/kg

---

- TEST_NAME: Determination of percent of compound bound to plasma (equilibrium dialysis)
- Format: in vitro ADME
- CONDITION_DESCRIPTION: human, pH 7.4, human plasma, 2 uM, 3 hours at 37 C, read-out: percent unbound
OBSERVED_PROPERTY: fraction unbound at 3 h, 2 μM

RECORD_SMILES	TEST_VALUE
Cc1cc(F)c(C(=O)Nc2cccc(-c3nncn3C(C)C)n2)cc1-n1cnc(C2CC2)c1	0.119

---

- SYSTEM: CYP3A4 (Homo sapiens)
- Sequence (P08684 whole entry): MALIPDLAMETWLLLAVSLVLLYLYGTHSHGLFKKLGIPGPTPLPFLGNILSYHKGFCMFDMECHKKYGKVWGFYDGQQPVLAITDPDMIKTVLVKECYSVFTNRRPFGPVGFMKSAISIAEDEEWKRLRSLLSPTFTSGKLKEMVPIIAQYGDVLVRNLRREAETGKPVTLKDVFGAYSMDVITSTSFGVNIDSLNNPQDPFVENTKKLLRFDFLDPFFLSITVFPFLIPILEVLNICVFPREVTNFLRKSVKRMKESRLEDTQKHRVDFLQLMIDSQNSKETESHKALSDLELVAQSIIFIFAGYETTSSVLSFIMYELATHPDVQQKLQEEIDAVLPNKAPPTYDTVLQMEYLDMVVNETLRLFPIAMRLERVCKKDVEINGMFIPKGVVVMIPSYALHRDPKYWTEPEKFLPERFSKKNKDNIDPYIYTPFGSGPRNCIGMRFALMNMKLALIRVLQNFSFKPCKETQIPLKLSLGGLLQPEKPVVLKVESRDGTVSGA
pIC50: −log10 of the molar value.

RECORD_SMILES	pIC50
Cc1ccc(C(=O)Nc2cccc(-c3nncn3C(C)C)n2)cc1-n1cnc(C2CC2)c1	5.40

---

- TEST_NAME: Rat pharmacokinetics, 1 mg/kg IV infusion and 5.0 mg/kg PO
- Assay type: in vivo
- CONDITION_DESCRIPTION: male, SD, rat, plasma, intravenous, 1 mg/kg; rats
- Description: Pharmacokinetics of Test Compounds following a 1 mg/kg IV infusion and 5.0 mg/kg PO dose in rats For IV administration the test compound was formulated in 60:40 PEG 400:water with 1 equivalent HCl at 0.5 mg/mL. […] For PO (oral) administration, the test compound was formulated in 5/75/10/10 ethanol/PG/solutol/water at 2.5 mg/mL. IV and PO dosing groups each consisted of 3 male SD rats. […] The animals were fasted overnight prior to dose administration and up to 4 hr after dosing. […]

RECORD_SMILES	clearance, mL/min/kg
Cc1ccc(C(=O)Nc2cccc(-c3nncn3C(C)C)n2)cc1-n1cnc(C2CC2)c1	6.5

Source of measurements: patent US20180099950A1
